Target Under Test: 5-hydroxytryptamine receptor 2A (Homo sapiens)
Test Protocol: 5-hydroxytryptamine receptor 2A (HTR2A) small molecule antagonists, cell-based qHTS assay (AID 1963586); further: nearly all actives have a fitted effect of over 45% in size
Measurement Setup: HTR2A-CHO cells, DOI-induced calcium flux, fluorescence; series mostly up to 61.5 µM
Records with an inconclusive call do not appear. The source made the active and inactive calls. The call rests on the fitted dose curve.
// classify into yes (active), no (inactive)

# Compound, Discrete Label
rows = [
    ("N=C1C=CC(=C(c2ccc(N)cc2)c2ccc(N)cc2)C=C1", "yes"),
]

// outcome(item) with item = CC(C)SCc1ccco1
no

// outcome(item) with item = CN1C(C)(C)CCCC1(C)C
no

// outcome(item) with item = [Cu+]
no

// outcome(item) with item = CN1CCOC(c2ccccc2)c2ccccc2C1 (centres undefined)
no

// outcome(item) with item = CCC1(C)NC(=O)NC1=O (centres undefined)
no

// outcome(item) with item = OCCN(CCO)c1ccccc1
no

// outcome(item) with item = NS(=O)(=O)c1cc(-c2nn[nH]n2)c(NCc2cccs2)cc1Cl
no

// outcome(item) with item = O=C(O)c1cccc(N(Cc2cccnc2)c2ccc(OC(F)F)c(OC(F)F)c2)c1
no

// outcome(item) with item = O=C(O)CCCc1c[nH]c2ccccc12
no

// outcome(item) with item = Cc1ccc(S)cc1
yes

// outcome(item) with item = N#CCc1ccc(Cl)cc1Cl
no

// outcome(item) with item = COc1ccccc1N1CCN(CCCCNC(=O)c2ccc(-c3ccc(C(C)=O)cc3)cc2)CC1
yes

// outcome(item) with item = Cc1c(F)cc2c(=O)c(C(=O)O)cn3c2c1CCC3C (centres undefined)
no

---

Target Under Test: Muscarinic acetylcholine receptor M1 (Homo sapiens) (UniProt P11229)
Sequence (P11229 whole entry, looked up): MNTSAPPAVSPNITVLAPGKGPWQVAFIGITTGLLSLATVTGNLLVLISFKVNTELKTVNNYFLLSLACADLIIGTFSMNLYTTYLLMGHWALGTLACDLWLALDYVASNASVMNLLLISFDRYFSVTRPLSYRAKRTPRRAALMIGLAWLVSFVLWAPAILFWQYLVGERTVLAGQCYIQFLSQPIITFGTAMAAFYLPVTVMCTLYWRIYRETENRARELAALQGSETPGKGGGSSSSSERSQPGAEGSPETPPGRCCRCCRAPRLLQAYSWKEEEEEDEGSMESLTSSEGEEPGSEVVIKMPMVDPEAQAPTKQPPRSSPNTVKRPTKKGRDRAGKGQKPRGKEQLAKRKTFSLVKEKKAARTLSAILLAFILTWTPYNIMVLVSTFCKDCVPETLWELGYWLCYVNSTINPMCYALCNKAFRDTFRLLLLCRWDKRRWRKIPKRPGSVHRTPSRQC
Test Protocol: Cholinergic receptor muscarinic 1 (CHRM1) small molecule antagonists, cell-based qHTS assay (AID 1963588); further: nearly all actives have a fitted effect of over 40% in size
Measurement Setup: CHRM1-CHO antagonist mode, calcium flux fluorescence; series mostly up to 61.5 µM
Records with an inconclusive call do not appear. The source made the active and inactive calls. Calls come from the whole dose curve.
// classify into active, inactive

Please review the following examples before continuing.
# Compound, Discrete Label
data = [
    ("Clc1ccc(C(Cn2ccnc2)OCc2c(Cl)cccc2Cl)c(Cl)c1 (stereo not drawn)", "active"),
    ("CSc1nc(NC2CC2)nc(NC(C)(C)C)n1", "inactive"),
    ("CCOC(=O)C(=O)OCC", "inactive"),
    ("CC(=O)O[C@@H]1CC2CCC1(C)C2(C)C (stereo partly drawn)", "inactive"),
    ("O=C1c2ccccc2C(=O)C1c1ccc(Br)cc1", "inactive"),
]

// outcome(item) with item = C=CCOc1nc(OCC=C)nc(OCC=C)n1
inactive

// outcome(item) with item = Nc1ccc(NC(=O)c2ccc(N)cc2)cc1
inactive

// outcome(item) with item = C[C@H](O)C(=O)Nc1c(I)c(C(=O)NC(CO)CO)c(I)c(C(=O)NC(CO)CO)c1I
inactive

// outcome(item) with item = CCCCN(CCCC)C(C(N)=O)c1ccc(OC)cc1 (stereo not drawn)
inactive

// outcome(item) with item = O=C(Nc1ccccc1)Nc1ccccc1
inactive

// outcome(item) with item = Cc1ccc2sc3cccc(C)c3c2c1
inactive

// outcome(item) with item = C=CCSSCCC
inactive

// outcome(item) with item = O[C@@H](CNC[C@H](O)[C@H]1CCc2cc(F)ccc2O1)[C@@H]1CCc2cc(F)ccc2O1
inactive

---

Target Under Test: D(2) dopamine receptor (Homo sapiens) (UniProt P14416)
Sequence (P14416 whole entry, looked up): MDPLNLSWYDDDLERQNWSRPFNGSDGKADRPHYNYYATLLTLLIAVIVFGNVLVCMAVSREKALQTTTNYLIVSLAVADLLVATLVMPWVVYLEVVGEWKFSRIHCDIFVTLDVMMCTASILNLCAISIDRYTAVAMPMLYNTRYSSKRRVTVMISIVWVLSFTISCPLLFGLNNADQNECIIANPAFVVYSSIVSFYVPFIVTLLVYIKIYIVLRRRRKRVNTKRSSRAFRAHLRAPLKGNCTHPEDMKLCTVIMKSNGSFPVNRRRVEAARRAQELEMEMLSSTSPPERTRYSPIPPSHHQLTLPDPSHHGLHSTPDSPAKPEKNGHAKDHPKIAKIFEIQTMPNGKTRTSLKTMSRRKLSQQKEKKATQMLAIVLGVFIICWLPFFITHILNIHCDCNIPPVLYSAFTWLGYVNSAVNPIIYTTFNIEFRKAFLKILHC
Test Protocol: Dopamine D2 receptor (DRD2) small molecule agonists, cell-based qHTS assay (AID 1963594); further: on the % scale 0 is the no-effect control and ±100 the full control effect; nearly all actives have a fitted effect of over 35% in size
Measurement Setup: HEK293-DRD2 cAMP HTRF, agonist mode, 30 min; series mostly up to 92.4 µM
Results filed as inconclusive are left out. Calls of active or inactive are those of the source. The call rests on the fitted dose curve.
Recorded Metric: activation

Solved entries:
# Compound, Recorded Metric, Value Observed
rows = [
    ("Oc1cccc(O)c1O", "activation", "inactive"),
    ("CCCCCC[C@@H](O)C/C=C\\CCCCCCCC(=O)OCC(O)CO (stereo partly drawn)", "activation", "inactive"),
    ("O=CNNC=O", "activation", "inactive"),
    ("CCOC(=O)[C@H](O)[C@@H](O)C(=O)OCC", "activation", "inactive"),
    ("O=C(O)c1ccc2c(c1)nc(C(=O)NC1CCN(C3CC3)CC1)n2Cc1cc(-c2ccc(Cl)s2)on1", "activation", "23% [at 19 µM] (inactive)"),
]

Hi! Can you tell me activation for each of these compounds?
1. FC(F)(F)C(F)(F)C(F)(F)C(F)(F)C(F)(F)C(F)(F)C(F)(F)C(F)(F)C(F)(F)C(F)(F)F
2. C=CC(C)(C)O
3. O=C(O)C(O)[C@H](O)[C@@H](O)[C@H](O)[C@H](O)CO (stereo partly drawn)
4. CCCOC(=O)c1ccc(C(=O)OCCC)nc1
5. CCOC(=O)CC#N
6. Cc1cc(C)c(C=O)c(C)c1

1. -0.702% [at 8.39 µM] (inactive)
2. inactive
3. inactive
4. inactive
5. inactive
6. inactive

Hi! Can you tell me activation for each of these compounds?
1. C[C@H](N)[C@H](O)c1cccc(O)c1
2. CCCCCCOC(=O)C(C)C

1: inactive; 2: inactive

---

Target Under Test: Beta-2 adrenergic receptor (Homo sapiens)
Test Protocol: Adrenergic beta2 receptor (ADRB2) small molecule agonists, cell-based qHTS assay (AID 1963593)
Measurement Setup: CHO-ADRB2 cells, cAMP HTRF, 30 min; series mostly up to 42.5 µM
Results filed as inconclusive are left out. The source made the active and inactive calls. Calls follow the shape of the full dose curve.
// classify into Yes for active, No for inactive

// outcome(item) with item = CC[C@H](NC(C)C)[C@H](O)c1ccc(O)c2[nH]c(=O)ccc12
Yes

// outcome(item) with item = O=C1c2ccccc2C(=O)C1c1nc2ccccc2c(Br)c1O
No

---

Target Under Test: Beta-2 adrenergic receptor (Homo sapiens) (UniProt P07550)
Sequence (P07550 whole entry, looked up): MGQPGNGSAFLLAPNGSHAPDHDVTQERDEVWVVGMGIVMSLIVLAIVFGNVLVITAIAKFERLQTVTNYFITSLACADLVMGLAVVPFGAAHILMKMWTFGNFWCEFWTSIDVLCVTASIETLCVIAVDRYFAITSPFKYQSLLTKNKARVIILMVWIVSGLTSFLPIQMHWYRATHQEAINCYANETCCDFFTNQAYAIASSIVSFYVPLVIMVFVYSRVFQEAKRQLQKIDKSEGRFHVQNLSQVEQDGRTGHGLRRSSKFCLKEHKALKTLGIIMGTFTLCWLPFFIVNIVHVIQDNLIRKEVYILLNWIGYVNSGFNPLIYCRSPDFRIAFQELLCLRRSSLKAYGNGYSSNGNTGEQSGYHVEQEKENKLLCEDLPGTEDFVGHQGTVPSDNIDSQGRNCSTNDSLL
Test Protocol: Adrenergic beta2 receptor (ADRB2) small molecule agonists, cell-based qHTS assay (AID 1963593)
Measurement Setup: CHO-ADRB2 cells, cAMP HTRF, 30 min; series mostly up to 42.5 µM
Records with an inconclusive call do not appear. Active and inactive are the calls of the source. The call rests on the fitted dose curve.
// classify into 1.0 (active), 0.0 (inactive)

# Compound, Target Under Test, Discrete Label
records = [
    ("CC(C)COC(=O)c1ccccc1", "Beta-2 adrenergic receptor (Homo sapiens) (UniProt P07550)", 0.0),
    ("CCCCOc1cc(C(=O)NCCN(CC)CC)c2ccccc2n1", "Beta-2 adrenergic receptor (Homo sapiens) (UniProt P07550)", 0.0),
    ("CCC1NC(=O)c2cc(S(N)(=O)=O)c(Cl)cc2N1 (configuration not stated)", "Beta-2 adrenergic receptor (Homo sapiens) (UniProt P07550)", 0.0),
    ("O=C(CCCCCCCCC#CI)Oc1ccccc1", "Beta-2 adrenergic receptor (Homo sapiens) (UniProt P07550)", 0.0),
]

Note: attention shifts to another entry.
// outcome(item) with item = CCn1cc(C(=O)O)c(=O)c2cc(F)c(N3CCNCC3)cc21
0.0

---

Test Protocol: p53 small molecule agonists, cell-based qHTS assay (AID 1963582); further: potency means the concentration at half of the fitted maximal effect
Measurement Setup: HCT-116 p53RE-bla reporter, beta-lactamase FRET ratio, 16 h; series mostly up to 66 µM
Results filed as inconclusive are left out. The source made the active and inactive calls. Calls come from the whole dose curve; as a rule, active = well fitted activation curve with a large enough effect in the signal ratio in the repeat runs (not every such curve was filed as active); inconclusive = weak or mixed curves; inactive = flat fitted curve, though single readings scatter; the % refers to the signal ratio.
Recorded Metric: Potency

Solved entries:
# Compound String, Recorded Metric, Value Observed
measured = [
    ("CNC(=O)c1ccccc1Sc1ccc2c(/C=C/c3ccccn3)n[nH]c2c1", "Potency", "1410 nM (active)"),
    ("CC(=O)OC[C@H]1O[C@@H](n2ncc(=O)[nH]c2=O)[C@H](OC(C)=O)[C@@H]1OC(C)=O", "Potency", "500 nM (active)"),
    ("O=C(O)c1c(O)c(-c2ccccc2)nc2ccccc12", "Potency", "19900 nM (active)"),
    ("OCCCCCCO", "Potency", "41300 nM (active)"),
    ("O=C1c2ccccc2C(=O)C1(O)O", "Potency", "36500 nM (active)"),
    ("CC(C)=CCC1=C(O)c2ccccc2C(=O)C1=O", "Potency", "4060 nM (active)"),
    ("N=C1N=C(N)c2ccccc21", "Potency", "36300 nM (active)"),
    ("Nc1ccn([C@@H]2O[C@H](CO)[C@@H](O)C2(F)F)c(=O)n1", "Potency", "199 nM (active)"),
]

Hi! Can you tell me Potency for each of these molecules?
1. Cc1ccsc1C(=CCCN1CCC[C@@H](C(=O)O)C1)c1sccc1C
2. CC(C)C[C@H](NC(=O)[C@H](CCc1ccccc1)NC(=O)CN1CCOCC1)C(=O)N[C@@H](Cc1ccccc1)C(=O)N[C@@H](CC(C)C)C(=O)[C@@]1(C)CO1

1. 500 nM (active)
2. 112 nM (active)
